# Test system: Bacillus subtilis
# assay.procedure: Antimicrobial activity against Bacillus subtilis ATCC 6633
# Assay type: functional
quantity.measured: MBC (µg/mL)
One number for each entry, in µg/mL.

Some entries whose results are on file:
structure.string: CC(=O)N[C@H]1[C@H](O[C@@H]2c3ccc(c(Cl)c3)Oc3cc4cc(c3O)Oc3ccc(cc3Cl)C[C@H]3NC(=O)[C@H](n5cc6ccccc6c5Sc5nc6ccccc6s5)c5ccc(O)c(c5)Oc5cc(O)cc(c5)[C@H](NC3=O)C(=O)N[C@H]4C(=O)N[C@H]3C(=O)N[C@@H]2C(=O)N[C@H](C(=O)O)c2cc(O)cc(O)c2-c2cc3ccc2O)O[C@H](CO)[C@@H](O)[C@@H]1O
tested.target: Bacillus subtilis
MBC, µg/mL: 2
//
structure.string: CC(=O)N[C@H]1[C@H](O[C@@H]2c3ccc(c(Cl)c3)Oc3cc4cc(c3O)Oc3ccc(cc3Cl)C[C@H]3NC(=O)[C@H](n5cc6ccccc6c5S[C@@H]5O[C@H](CO)[C@@H](O)[C@H](O)[C@H]5O)c5ccc(O)c(c5)Oc5cc(O)cc(c5)[C@H](NC3=O)C(=O)N[C@H]4C(=O)N[C@H]3C(=O)N[C@@H]2C(=O)N[C@H](C(=O)O)c2cc(O)cc(O)c2-c2cc3ccc2O)O[C@H](CO)[C@@H](O)[C@@H]1O
tested.target: Bacillus subtilis
MBC, µg/mL: 1
//
structure.string: CC(=O)N[C@H]1[C@H](O[C@@H]2c3ccc(c(Cl)c3)Oc3cc4cc(c3O)Oc3ccc(cc3Cl)C[C@H]3NC(=O)[C@H](n5cc6ccccc6c5S[C@@H]5O[C@H](COC(C)=O)[C@@H](OC(C)=O)[C@H](OC(C)=O)[C@H]5OC(C)=O)c5ccc(O)c(c5)Oc5cc(O)cc(c5)[C@H](NC3=O)C(=O)N[C@H]4C(=O)N[C@H]3C(=O)N[C@@H]2C(=O)N[C@H](C(=O)O)c2cc(O)cc(O)c2-c2cc3ccc2O)O[C@H](CO)[C@@H](O)[C@@H]1O
tested.target: Bacillus subtilis
MBC, µg/mL: 64
//
structure.string: CC(=O)N[C@H]1[C@H](O[C@@H]2c3ccc(c(Cl)c3)Oc3cc4cc(c3O)Oc3ccc(cc3Cl)C[C@H]3NC(=O)[C@H](n5cc6cc7ccccc7cc6c5Sc5ncccn5)c5ccc(O)c(c5)Oc5cc(O)cc(c5)[C@H](NC3=O)C(=O)N[C@H]4C(=O)N[C@H]3C(=O)N[C@@H]2C(=O)N[C@H](C(=O)O)c2cc(O)cc(O)c2-c2cc3ccc2O)O[C@H](CO)[C@@H](O)[C@@H]1O
tested.target: Bacillus subtilis
MBC, µg/mL: 2

Shifting focus to the compound that follows.
Query CC(=O)N[C@H]1[C@H](O[C@@H]2c3ccc(c(Cl)c3)Oc3cc4cc(c3O)Oc3ccc(cc3Cl)C[C@H]3NC(=O)[C@H](n5cc6ccccc6c5Sc5ccccc5)c5ccc(O)c(c5)Oc5cc(O)cc(c5)[C@H](NC3=O)C(=O)N[C@H]4C(=O)N[C@H]3C(=O)N[C@@H]2C(=O)N[C@H](C(=O)O)c2cc(O)cc(O)c2-c2cc3ccc2O)O[C@H](CO)[C@@H](O)[C@@H]1O yields MBC of 1
